Sourced from patent US7745450B2

- TARGET OR TEST SYSTEM: MMK1 protein kinase (Vicia faba, UniProt A0AAV1B7B8)
- Sequence (A0AAV1B7B8 1-394): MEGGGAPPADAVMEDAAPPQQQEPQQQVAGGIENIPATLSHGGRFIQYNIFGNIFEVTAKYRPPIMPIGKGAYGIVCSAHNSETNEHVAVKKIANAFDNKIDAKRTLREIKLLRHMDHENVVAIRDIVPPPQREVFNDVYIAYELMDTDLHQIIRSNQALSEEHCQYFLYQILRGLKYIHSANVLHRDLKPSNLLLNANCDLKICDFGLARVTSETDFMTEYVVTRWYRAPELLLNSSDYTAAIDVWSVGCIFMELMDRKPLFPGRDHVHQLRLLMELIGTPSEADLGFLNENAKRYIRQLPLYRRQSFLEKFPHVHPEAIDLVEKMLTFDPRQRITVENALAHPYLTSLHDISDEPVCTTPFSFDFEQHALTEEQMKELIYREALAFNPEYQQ
READOUT: pIC50
Value format note: pIC50 is -log10 of concentration (mol/L); just state the number.

Consider the following illustrative entries.
> print(dat)
                                   compound  endpoint.result
1  CC[C@H](CO)Nc1nc(NCc2ccccc2OC(C)=O)c2[nH]nc(C(C)C)c2n1             6.70
2    Cc1n[nH]c2c(Nc3cccc(Cl)c3)nc(NCCO)nc12             6.05
3  COc1ccc(CNc2nc(NCCO)nc3c(C)n[nH]c23)c(O)c1O             6.54
4  CC(=O)Oc1cccc(CNc2nc(NCCO)nc3c(C)n[nH]c23)c1             5.47
5  CC(C)c1n[nH]c2c(Nc3cccc(Cl)c3)nc(N(CCO)CCO)nc12             6.72

Problem: What value of pIC50 on MMK1 protein kinase (Vicia faba, UniProt A0AAV1B7B8) does CC(C)c1n[nH]c2c(NCc3ccc(Cl)c(N)c3N)nc(N[C@@H](CO)C(C)C)nc12 have?
Solution: 7.40

Problem: What value of pIC50 on MMK1 protein kinase (Vicia faba, UniProt A0AAV1B7B8) does CC[C@H](CO)Nc1nc(NCc2ccccc2)c2[nH]nc(C)c2n1 have?
Solution: 5.89

Problem: What value of pIC50 on MMK1 protein kinase (Vicia faba, UniProt A0AAV1B7B8) does CC[C@H](CO)Nc1nc(NCc2ccccc2C(C)=O)c2[nH]nc(C(C)C)c2n1 have?
Solution: 7.82

Problem: What value of pIC50 on MMK1 protein kinase (Vicia faba, UniProt A0AAV1B7B8) does CC(C)c1n[nH]c2c(Nc3cccc(Cl)c3)nc(NC3CCC(N)CC3)nc12 (stereo not drawn) have?
Solution: 7.92

Problem: What value of pIC50 on MMK1 protein kinase (Vicia faba, UniProt A0AAV1B7B8) does CC(C)c1n[nH]c2c(N(C)Cc3ccc(O)c(O)c3)nc(N[C@@H](CO)C(C)C)nc12 have?
Solution: 6.96

Problem: What value of pIC50 on MMK1 protein kinase (Vicia faba, UniProt A0AAV1B7B8) does CC[C@H](CO)Nc1nc(NCc2ccc(Cl)c(O)c2O)c2[nH]nc(C(C)C)c2n1 have?
Solution: 7.96

Problem: What value of pIC50 on MMK1 protein kinase (Vicia faba, UniProt A0AAV1B7B8) does CC[C@H](CO)Nc1nc(NCc2ccc(OC)c(O)c2O)c2[nH]nc(C(C)C)c2n1 have?
Solution: 8.30
